biological target: human MRGPRD (Homo sapiens, UniProt Q8TDS7); assay: MRGPRD antagonist activity, IP-One HTRF assay in CHO cells stably expressing human MRGPRD (versus 100 μM β-Alanine agonist); format: cell-based
Sequence (Q8TDS7 whole entry): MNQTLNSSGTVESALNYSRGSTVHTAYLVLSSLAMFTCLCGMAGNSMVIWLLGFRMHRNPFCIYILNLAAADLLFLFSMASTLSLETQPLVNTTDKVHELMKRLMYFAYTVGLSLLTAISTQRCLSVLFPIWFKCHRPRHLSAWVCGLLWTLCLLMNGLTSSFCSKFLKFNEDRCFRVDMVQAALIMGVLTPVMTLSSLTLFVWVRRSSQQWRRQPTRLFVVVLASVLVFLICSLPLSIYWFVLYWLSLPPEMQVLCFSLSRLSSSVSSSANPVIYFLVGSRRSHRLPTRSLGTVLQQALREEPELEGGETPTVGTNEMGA
pIC50: −log10 of the molar value.
pIC50 for assorted molecules
Readout Label: pIC50

> print(dat)
                                   molecule        result
1  CCc1ccc(C2(NC(=O)c3nnn(-c4ccc(-c5c(C)nn6cccnc56)cc4)c3C3CC3)CC2)cn1 [Compound 10-8]  5.52 to 6.00
2  COc1ccc(-c2cccc(-n3nnc(C(=O)Nc4ccncc4)c3C3CC3)c2)c(C)c1 [Compound 7-287]  5.52 to 6.00
3  Cc1cc(NC(=O)c2nnn(C3CC=C(c4c(C)nn(-c5ccccc5)c4C)CC3)c2C2CC2)ccn1 (stereo not shown) [Compound 12-3]  6.00 to 6.30
4  O=C(Nc1ccncc1)c1nnn(-c2ccc(-c3cc(CO)[nH]n3)cc2)c1C1CC1 [Compound 7-211]  5.52 to 6.00
5  CCn1cc(CNC(=O)c2nnn(-c3ccc(-c4c(C)nn5ccccc45)cc3)c2C(C)C)cn1 [Compound 10-11]        > 7.00
6  C[C@H](NC(=O)c1nnn(-c2ccc(-c3ccccc3)cc2)c1C1CC1)c1ccc(Cl)cc1 [Compound 14-28]  5.52 to 6.00
7  CCc1ccc(-c2ccc(-n3nnc(C(=O)Nc4ccnc(C)c4)c3C3CC3)cc2)cn1 [Compound 15-23]  6.30 to 7.00

----------
target: human MRGPRD (Homo sapiens, UniProt Q8TDS7); experiment: MRGPRD antagonist activity, IP-One HTRF assay in CHO cells stably expressing human MRGPRD (versus 100 μM β-Alanine agonist)
Readout Label: IC50

> print(dat)
                  compound.structure.string          result
1  CCc1cc(NC(=O)c2nnn(-c3ccc(-c4ccccc4)cc3)c2C2CC2)ccn1   100 to 500 nM
2  CCn1ccc(-c2cccc(-n3nnc(C(=O)Nc4ccnc(C)c4)c3C3CC3)c2)n1  500 to 1000 nM
3  N#Cc1ccc(-c2ccc(-n3nnc(C(=O)NC4(c5cncc(Cl)c5)CC4)c3C3CC3)cc2)cc1F   100 to 500 nM
4  Cc1ccc(CNC(=O)c2nnn(-c3ccc(-c4c(C)nn(C)c4F)cc3)c2C2CC2)cn1   100 to 500 nM

----------
target: human MRGPRD (Homo sapiens); test: MRGPRD antagonist activity, IP-One HTRF assay in CHO cells stably expressing human MRGPRD (versus 100 μM β-Alanine agonist)
Readout Label: IC50

> print(dat)
                                   molecule  readout.label           result
1  O=C(Nc1ccncc1)c1nnn(-c2cccc(-c3cnn(-c4ccccc4)c3)c2)c1C1CC1           IC50   500 to 1000 nM
2  COc1ccc(-c2cccc(-n3nnc(C(=O)Nc4ccncc4)c3C3CC3)c2)cc1F           IC50  1000 to 3000 nM
3  CCn1cc(CNC(=O)c2nnn(-c3ccc(-c4cccc(CC#N)c4)cc3)c2C2CC2)cn1           IC50    100 to 500 nM
4  O=C(Nc1ccncc1)c1nnn(C2CCc3ccccc3C2)c1C1CC1 (centres unmarked)           IC50  1000 to 3000 nM
5  Cc1nn(-c2ccccc2)cc1-c1cccc(-n2nnc(C(=O)Nc3ccncc3)c2C2CC2)c1           IC50   500 to 1000 nM
6  Cc1cncc(C2(NC(=O)c3nnn(-c4ccc(-c5ccc(C#N)cc5)cc4)c3C3CC3)CC2)c1           IC50  1000 to 3000 nM
7  COc1ccc2[nH]cc(CC(C)NC(=O)c3nnn(-c4ccc(-c5ccccc5)cc4)c3C3CC3)c2c1 (centres unmarked)           IC50  1000 to 3000 nM
8  Cc1cc(NC(=O)c2nnn(-c3ccc(-c4ccc(C#N)nc4)cc3)c2C2CC2)ccn1           IC50    100 to 500 nM
